Examples of compounds with documented time of signal decay back to baseline / time signal stayed above initial baseline follow.
# Target Or System: human sweet taste receptor TAS1R2/TAS1R3 (Homo sapiens, UniProt Q7RTX0+Q8TE23)
# Construct: expressed in transfected cells; host or cells: HEK293 Flp-In T-Rex cells; Gα15Gi3 and TAS1R2 constitutive, TAS1R3 tetracycline-inducible
# Sequence (Q8TE23 20-839): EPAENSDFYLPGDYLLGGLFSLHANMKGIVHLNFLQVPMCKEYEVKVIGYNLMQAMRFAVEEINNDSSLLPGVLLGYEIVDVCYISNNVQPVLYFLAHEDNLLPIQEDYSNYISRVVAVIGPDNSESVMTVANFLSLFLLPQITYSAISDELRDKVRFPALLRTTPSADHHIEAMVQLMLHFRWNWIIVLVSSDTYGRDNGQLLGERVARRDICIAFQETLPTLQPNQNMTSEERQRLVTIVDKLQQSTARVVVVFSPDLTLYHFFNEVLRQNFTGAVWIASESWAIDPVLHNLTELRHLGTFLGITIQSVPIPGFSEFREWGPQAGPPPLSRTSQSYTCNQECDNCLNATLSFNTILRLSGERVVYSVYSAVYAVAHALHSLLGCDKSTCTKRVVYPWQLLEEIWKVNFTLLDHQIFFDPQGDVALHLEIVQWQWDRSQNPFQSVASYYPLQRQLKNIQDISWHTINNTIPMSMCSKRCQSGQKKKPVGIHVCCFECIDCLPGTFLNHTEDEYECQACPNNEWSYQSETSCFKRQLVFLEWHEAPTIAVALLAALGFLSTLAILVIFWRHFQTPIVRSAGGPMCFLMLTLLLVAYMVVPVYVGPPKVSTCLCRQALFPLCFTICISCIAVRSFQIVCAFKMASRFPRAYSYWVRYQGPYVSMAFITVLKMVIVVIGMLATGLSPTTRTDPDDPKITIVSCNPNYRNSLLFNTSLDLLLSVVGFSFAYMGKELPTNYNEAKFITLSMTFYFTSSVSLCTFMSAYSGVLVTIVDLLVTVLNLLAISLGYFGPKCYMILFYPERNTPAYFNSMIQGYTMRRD
# Sequence (Q7RTX0 21-852): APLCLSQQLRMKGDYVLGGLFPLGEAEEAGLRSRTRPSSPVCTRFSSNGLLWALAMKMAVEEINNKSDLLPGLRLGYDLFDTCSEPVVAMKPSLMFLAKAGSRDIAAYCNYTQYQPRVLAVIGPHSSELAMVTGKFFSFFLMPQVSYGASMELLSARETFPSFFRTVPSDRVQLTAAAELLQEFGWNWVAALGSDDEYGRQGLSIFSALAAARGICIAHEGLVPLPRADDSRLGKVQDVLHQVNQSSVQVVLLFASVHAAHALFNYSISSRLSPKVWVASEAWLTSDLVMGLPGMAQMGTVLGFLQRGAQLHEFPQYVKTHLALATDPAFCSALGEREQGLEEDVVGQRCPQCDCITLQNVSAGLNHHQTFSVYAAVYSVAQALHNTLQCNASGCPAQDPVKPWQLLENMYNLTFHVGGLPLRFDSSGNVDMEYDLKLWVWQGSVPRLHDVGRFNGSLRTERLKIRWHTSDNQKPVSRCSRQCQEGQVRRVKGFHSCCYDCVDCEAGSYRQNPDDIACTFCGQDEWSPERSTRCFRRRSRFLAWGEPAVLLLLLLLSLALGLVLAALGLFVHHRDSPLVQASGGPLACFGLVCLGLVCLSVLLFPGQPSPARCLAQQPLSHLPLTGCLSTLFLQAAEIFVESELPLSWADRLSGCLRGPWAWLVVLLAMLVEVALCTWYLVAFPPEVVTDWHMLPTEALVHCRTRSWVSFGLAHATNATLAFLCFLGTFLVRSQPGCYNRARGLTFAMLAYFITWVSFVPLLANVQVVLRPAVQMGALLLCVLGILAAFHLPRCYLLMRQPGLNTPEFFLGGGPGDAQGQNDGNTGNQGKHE
# Assay Notes: Calcium mobilization assay in HEK293 Flp-In T-Rex-Gα15Gi3-TAS1R2/TAS1R3 cells (FLIPR, Fluo-4)
# Format: cell-based
# Test Parameters: raw fluorescence traces; 1 mM Ace K, 3 mM aspartame, 10 mM cyclamate, 0.3 mM NHDC
# Source text: For the functional characterization of the human sweet taste receptor, we used HEK293 Flp-In T-Rex cells stably transfected with the G protein chimera Gα15Gi3, and the two subunits of the human sweet taste receptor, TAS1R2 and TAS1R3 ([Galindo-Cuspinera et al., 2006]). […] Then, plates were placed in a fluorometric imaging plate reader (FLIPR^tetra, Molecular Devices, San Jose, CA, United States) for automated compound application and measurement of fluorescence changes. […]
Peptide text beside a SMILES is read from it.

Previously resolved entries follow.
>  <Compound>
O=S(=O)(O)NC1CCCCC1 [cyclamate]

>  <Recorded Value>
≥ 6 min

$$$$
>  <Compound>
COC(=O)[C@H](Cc1ccccc1)NC(=O)[C@@H](N)CC(=O)O [aspartame] (H-Asp-Phe-OMe)

>  <Recorded Value>
≥ 6 min

$$$$

# context switch: different compound, same time of signal decay back to baseline / time signal stayed above initial baseline
COc1ccc(CCC(=O)c2c(O)cc(O[C@@H]3O[C@H](CO)[C@@H](O)[C@H](O)[C@H]3O[C@@H]3O[C@@H](C)[C@H](O)[C@@H](O)[C@H]3O)cc2O)cc1O [NHDC, neohesperidin dihydrochalcone] yielded time of signal decay back to baseline / time signal stayed above initial baseline of ≥ 6 min

====

Examples of compounds with documented onset (time of first maximum intensity) follow.
# Test system: perceived sweet intensity (panelists)
# Assay Notes: Sensory time-intensity (TI) measurement of sweetness by a trained panel
# Assay type: in vivo, human
# Test Parameters: at sweet intensity saturation level: 50 mM cyclamate, 0.5 mM NHDC, 5.0 mM acesulfame K, 5.0 mM aspartame; without lactisole
# Description: All panelists gave their written informed consent for participating in the panel and had to complete a sensory training. […] On a last training day, the evaluation on unstructured scales and the time-dependent evaluation on the computer were trained. […] Every test solution was assessed randomly at two different test days with at least 8 panelists participating per replicate. […] A maximum of five test compounds were assessed in one session. […]
Peptide text beside a SMILES is read from it.

Previously resolved entries follow.
>  <Compound>
O=S(=O)(O)NC1CCCCC1 [cyclamate]

>  <Target Or System>
perceived sweet intensity (panelists)

>  <Recorded Value>
5.1 s

$$$$
>  <Compound>
COc1ccc(CCC(=O)c2c(O)cc(O[C@@H]3O[C@H](CO)[C@@H](O)[C@H](O)[C@H]3O[C@@H]3O[C@@H](C)[C@H](O)[C@@H](O)[C@H]3O)cc2O)cc1O [NHDC, neohesperidin dihydrochalcone]

>  <Target Or System>
perceived sweet intensity (panelists)

>  <Recorded Value>
5.1 s

$$$$
>  <Compound>
COC(=O)[C@H](Cc1ccccc1)NC(=O)[C@@H](N)CC(=O)O [aspartame] (H-Asp-Phe-OMe)

>  <Target Or System>
perceived sweet intensity (panelists)

>  <Recorded Value>
5.7 s

$$$$

# context switch: different compound, same onset (time of first maximum intensity)
Fill in: perceived sweet intensity (panelists) onset (time of first maximum intensity) for CC1=CC(=O)NS(=O)(=O)O1 [acesulfame K] = 4.6 s

====

# Target Or System: human sweet taste receptor TAS1R2/TAS1R3 (Homo sapiens, UniProt Q7RTX0+Q8TE23)
# Construct: expressed in transfected cells; host or cells: HEK293 Flp-In T-Rex cells; Gα15Gi3 and TAS1R2 constitutive, TAS1R3 tetracycline-inducible
# Assay Notes: Calcium mobilization assay in HEK293 Flp-In T-Rex-Gα15Gi3-TAS1R2/TAS1R3 cells (FLIPR, Fluo-4)
# Format: cell-based
# Test Parameters: including 20 sec of baseline monitoring; 1 mM Ace K, 3 mM aspartame, 10 mM cyclamate, 0.3 mM NHDC
Peptide text beside a SMILES is read from it.
Measure Name: time where signal decreased below 50 % of the maximum signal amplitude (s)
# output: bare number, implied unit s

Previously resolved entries follow.
>  <Compound>
O=S(=O)(O)NC1CCCCC1 [cyclamate]

>  <Unit Descriptor>
s

>  <Recorded Value>
93

$$$$
>  <Compound>
COC(=O)[C@H](Cc1ccccc1)NC(=O)[C@@H](N)CC(=O)O [aspartame] (H-Asp-Phe-OMe)

>  <Unit Descriptor>
s

>  <Recorded Value>
93

$$$$
>  <Compound>
COc1ccc(CCC(=O)c2c(O)cc(O[C@@H]3O[C@H](CO)[C@@H](O)[C@H](O)[C@H]3O[C@@H]3O[C@@H](C)[C@H](O)[C@@H](O)[C@H]3O)cc2O)cc1O [NHDC, neohesperidin dihydrochalcone]

>  <Unit Descriptor>
s

>  <Recorded Value>
107

$$$$

`CC1=CC(=O)NS(=O)(=O)O1` yielded time where signal decreased below 50 % of the maximum signal amplitude of 85

====

# Target Or System: human sweet taste receptor TAS1R2/TAS1R3 (Homo sapiens, UniProt Q7RTX0+Q8TE23)
# Construct: expressed in transfected cells; host or cells: HEK293 Flp-In T-Rex cells; Gα15Gi3 and TAS1R2 constitutive, TAS1R3 tetracycline-inducible
# Assay Notes: Calcium mobilization assay in HEK293 Flp-In T-Rex-Gα15Gi3-TAS1R2/TAS1R3 cells (FLIPR, Fluo-4)
# Format: cell-based
# Test Parameters: w/o lactisole; agonist concentrations on x-axis in mM; 3 independent experiments in duplicates; read-out: EC50 of TAS1R2/TAS1R3 activation (ΔF/F)
# Description: For the functional characterization of the human sweet taste receptor, we used HEK293 Flp-In T-Rex cells stably transfected with the G protein chimera Gα15Gi3, and the two subunits of the human sweet taste receptor, TAS1R2 and TAS1R3 ([Galindo-Cuspinera et al., 2006]). […] Then, plates were placed in a fluorometric imaging plate reader (FLIPR^tetra, Molecular Devices, San Jose, CA, United States) for automated compound application and measurement of fluorescence changes. […]
Peptide text beside a SMILES is read from it.
Measure Name: EC50 (mM)
# output: bare number, implied unit mM

Previously resolved entries follow.
>  <Molecule>
O=S(=O)(O)NC1CCCCC1 [cyclamate]

>  <EC50 / mM>
1.51

$$$$
>  <Molecule>
COc1ccc(CCC(=O)c2c(O)cc(O[C@@H]3O[C@H](CO)[C@@H](O)[C@H](O)[C@H]3O[C@@H]3O[C@@H](C)[C@H](O)[C@@H](O)[C@H]3O)cc2O)cc1O [NHDC, neohesperidin dihydrochalcone]

>  <EC50 / mM>
0.05

$$$$
>  <Molecule>
COC(=O)[C@H](Cc1ccccc1)NC(=O)[C@@H](N)CC(=O)O [aspartame] (H-Asp-Phe-OMe)

>  <EC50 / mM>
0.33

$$$$

`CC1=CC(=O)NS(=O)(=O)O1` yielded EC50 of 0.36

====

# Test system: perceived sweet intensity (panelists)
# Assay Notes: Sensory time-intensity (TI) measurement of sweetness by a trained panel
# Type: in vivo, human
# Test Parameters: 0.46 mM lactisole; time-intensity curves
Peptide text beside a SMILES is read from it.
Measure Name: sweetener concentration up to which lactisole effectively inhibited the sweetness

COC(=O)[C@H](Cc1ccccc1)NC(=O)[C@@H](N)CC(=O)O [aspartame] (H-Asp-Phe-OMe) yielded sweetener concentration up to which lactisole effectively inhibited the sweetness of ≤ 1.0 mM

====

# Target Or System: human sweet taste receptor TAS1R2/TAS1R3 (Homo sapiens, UniProt Q7RTX0+Q8TE23)
# Construct: expressed in transfected cells; host or cells: HEK293 Flp-In T-Rex cells; Gα15Gi3 and TAS1R2 constitutive, TAS1R3 tetracycline-inducible
# Assay Notes: Calcium mobilization assay in HEK293 Flp-In T-Rex-Gα15Gi3-TAS1R2/TAS1R3 cells (FLIPR, Fluo-4)
# Type: cell-based
# Test Parameters: combination with 10, 30, 100 μM lactisole
Peptide text beside a SMILES is read from it.
Measure Name: mode of inhibition by lactisole (shift of dose-response curve), cell experiments

>  <Molecule>
O=S(=O)(O)NC1CCCCC1 [cyclamate]

>  <Target Or System>
human sweet taste receptor TAS1R2/TAS1R3 (Homo sapiens, UniProt Q7RTX0+Q8TE23)

>  <Recorded Value>
competitive inhibition

$$$$
>  <Molecule>
COC(=O)[C@H](Cc1ccccc1)NC(=O)[C@@H](N)CC(=O)O [aspartame] (H-Asp-Phe-OMe)

>  <Target Or System>
human sweet taste receptor TAS1R2/TAS1R3 (Homo sapiens, UniProt Q7RTX0+Q8TE23)

>  <Recorded Value>
Allosteric inhibition

$$$$
>  <Molecule>
COc1ccc(CCC(=O)c2c(O)cc(O[C@@H]3O[C@H](CO)[C@@H](O)[C@H](O)[C@H]3O[C@@H]3O[C@@H](C)[C@H](O)[C@@H](O)[C@H]3O)cc2O)cc1O [NHDC, neohesperidin dihydrochalcone]

>  <Target Or System>
human sweet taste receptor TAS1R2/TAS1R3 (Homo sapiens, UniProt Q7RTX0+Q8TE23)

>  <Recorded Value>
competitive inhibition

$$$$
>  <Molecule>
CC1=CC(=O)NS(=O)(=O)O1

>  <Target Or System>
human sweet taste receptor TAS1R2/TAS1R3 (Homo sapiens, UniProt Q7RTX0+Q8TE23)

>  <Recorded Value>
Allosteric inhibition

$$$$
